system: Rtkn-GFP; experiment: ToxTracker genotoxicity assay, Rtkn-GFP reporter induction; settings: GFP induction vs vehicle at 25% cytotoxicity; 3 h exposure with S9, 24 h recovery
measure.name: Genotoxicity test, With S9 rat liver extract, Rtkn, 25 (fold)
One number for each entry, in fold.

Give Genotoxicity test, With S9 rat liver extract, Rtkn, 25 for all molecules that follow.
1. CCCCOCC(CN1CC1C)OC(=O)NCCCCCCN1C(=O)N(CCCCCCNC(=O)OC(COCCCC)CN2CC2C)C1=O (stereo not drawn)
2. CCCCCCCCCC(=O)OCC(CN1CC1C)OC(=O)NC(C)(C)c1cccc(C(C)(C)NC(=O)OC(COC(=O)CCCCCCCCC)CN2CC2C)c1 (stereo not drawn)
3. C=CCOCC(CN1CC1C)OC(=O)NCCCCCCn1c(=O)n(CCCCCCNC(=O)OC(COCC=C)CN2CC2C)c(=O)n(CCCCCCNC(=O)OC(COCC=C)CN2CC2C)c1=O (stereo not drawn)
4. CC(CN1CC1C)OC(=O)NCCCCCCn1c(=O)n(CCCCCCNC(=O)OC(C)CN2CC2C)c(=O)n(CCCCCCNC(=O)OC(C)CN2CC2C)c1=O (stereo not drawn)
5. Cc1ccccc1OCC(CN1CC1C)OC(=O)NCCCCCCn1c(=O)n(CCCCCCNC(=O)OC(COc2ccccc2C)CN2CC2C)c(=O)n(CCCCCCNC(=O)OC(COc2ccccc2C)CN2CC2C)c1=O (stereo not drawn)

1: 1.6; 2: 1.1; 3: 1.1; 4: 1.1; 5: 1.4

Given the molecule CCCCOCC(CN1CC1C)OC(=O)NC(C)(C)c1cccc(C(C)(C)NC(=O)OC(COCCCC)CN2CC2C)c1 (stereo not drawn) , what is its reported Genotoxicity test, With S9 rat liver extract, Rtkn, 25?
1.3

This collection of values is drawn from patent US12180194B2.
